# Tested on: H1975 (EGFR L858R/T790M double mutation)
# assay_remarks: Cell antiproliferative assay (CTG, 72 h), H1975
# Assay type: cell-based, human
# test_conditions: Homo sapiens, NCI-H1975, 72 h, Table 2, H1975 cells
# Protocol: Test Example 1 Cell Antiproliferative Assay H1975: with EGFR: L858R/T790M double mutation; PC-9 with EGFR exon 19 deletion, HCC827 with exon 19 deletion mutation. CellCounting-Lite2.0, Trypsin EDTA, 37° C. […] • (A)96-well plates were incubated in an incubator for 72 h. The effect of the compounds was observed under an inverted microscope. • (B)25 μl of CTG solution was added to each well, the plate was put on shaker for 10 minutes and the […] of each well was read. […]
Below is a list of entries, each paired with its recorded IC50 value.

Measured IC50, COc1cc(N2CCN(C(=O)CN3CCC(c4ccc(NC5CCC(=O)NC5=O)cc4)CC3)CC2)c(C(F)(F)F)cc1Nc1ncc(Br)c(Nc2ccccc2C(C)=O)n1 (stereo not shown) [Compound T-289] : 10 to 100 nM

The compound listed as COc1cc(N2CCC(N(C)C(=O)CN3CCC(c4ccc(NC5CCC(=O)NC5=O)cc4)CC3)CC2)ccc1Nc1ncc(Cl)c(Nc2ccccc2C(C)=O)n1 (stereo not shown) [Compound T-353] has a reported IC50 of 10 to 100 nM

Given item O=C1CCC(Nc2ccc(C3CCN(CC(=O)N4CCN(c5ccc(-c6cc(F)c7c(c6)C(=O)N(C(C(=O)Nc6nccs6)c6ncn8c6CCC8)C7)cc5)CC4)CC3)cc2)C(=O)N1 (stereo not shown) [Comparative Compound 1, reference compound] , the value recorded as its IC50 is 100 to 1000 nM

IC50 reported for this compound COc1cc(N2CCN(C(=O)CN3CCC(c4ccc(NC5CCC(=O)NC5=O)nc4)CC3)CC2)ccc1Nc1ncc(Cl)c(Nc2ccccc2C(C)=O)n1 (stereo not shown) [Compound T-100] : 100 to 1000 nM

IC50 measured on CNC(=O)c1ccccc1Nc1nc(Nc2ccc(N3CCN(C(=O)CN4CCC(c5ccc(NC6CCC(=O)NC6=O)cc5)C(F)(F)C4)CC3)cc2OC)ncc1Br (stereo not shown) [Compound T-313] = ≤ 10 nM

Noted for COc1cc(N2CCN(C(=O)CN3CCC(c4ccc(NC5CCC(=O)NC5=O)cc4)CC3)CC2)ccc1Nc1ncc(Cl)c(Nc2ccccc2NC(C)=O)n1 (stereo not shown) [Compound T-195] : its IC50 reads 10 to 100 nM

Record CNC(=O)c1ccccc1Nc1nc(Nc2ccc(N3CCN(C(=O)CN4CCC(c5ccc(NC6CCC(=O)NC6=O)cc5)CC4)CC3)cc2OC)ncc1Br (stereo not shown) [Compound T-185] . Reported IC50: ≤ 10 nM
